Molecular target: T1, His6-SUMO-tagged MYC3 (44-238) (Arabidopsis thaliana, UniProt Q9FIP9 44-238)
T1 sequence (looked up): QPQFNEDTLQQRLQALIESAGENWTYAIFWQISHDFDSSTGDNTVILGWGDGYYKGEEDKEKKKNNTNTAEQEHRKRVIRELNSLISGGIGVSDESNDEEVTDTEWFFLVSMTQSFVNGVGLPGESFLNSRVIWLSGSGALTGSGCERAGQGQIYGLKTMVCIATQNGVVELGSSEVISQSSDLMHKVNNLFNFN
Experiment: fluorescence polarisation
Ends that are not written are not given here.

Binder	Kd / nM
YVGKADFLVFRAMSQHGFLGQLQDKKLCAVIQLPSQTLLLSV (peptide, UniProt Q7XYY2 614-655, looked up, also: 5-carboxyfluorescein-conjugated) [fluorescein-conjugated MED25^CMIDM (614-655aa)]	1900
FQKFLDRRRSFRDIQGAISKIDPEIIKSLLAST (peptide, UniProt Q93ZM9 26-58, looked up, also: 5-carboxyfluorescein-conjugated) [fluorescein-conjugated JAZ10^CMID (26-58aa)]	470

Ref: paper PMC8752898
